test: Bioavailability and pharmacokinetic profile following intravenous and oral administration; format: in vivo, Male Sprague Dawley Rats; conditions: male, Sprague Dawley, rat, plasma, iv, 5 mg/kg, IV 5 mg/kg; Mean; 1 hr
test-readout: concentration at 1 hr (ng/mL)
Please reply with the bare figure in ng/mL and do not write the unit itself.

Need concentration at 1 hr of `CN1CCN(c2cc(N3CCN(C)S3(=O)=O)c3nc(C(=O)NCc4ccc(F)cc4)c(O)c(=O)n3c2)CC1` , thanks.
527

###

test: Bioavailability and pharmacokinetic profile following intravenous and oral administration; format: in vivo, Male Sprague Dawley Rats; conditions: male, Sprague Dawley, rat, plasma, po, 10 mg/kg, PO 10 mg/kg; Mean; 2 hr
test-readout: concentration at 2 hr (ng/mL)
Please reply with the bare figure in ng/mL and do not write the unit itself.

Need concentration at 2 hr of CN1CCN(c2cc(N3CCN(C)S3(=O)=O)c3nc(C(=O)NCc4ccc(F)cc4)c(O)c(=O)n3c2)CC1 [Example 3.4] , thanks.
14.1

Just for reference, patent US20130178469A1 is where these values come from.
